Assay details: Metabolic stability in liver microsomes
Setup conditions: monkey, microsomes, pH 7.4
Quantity measured: remaining at 2 h, 10 μM (%)
Number in %, nothing else.

I am curious: what remaining at 2 h, 10 μM value has been reported for Cc1ncc2n1-c1ccc(Cl)cc1C(c1ccccc1F)=NC2 [Midazolam, reference compound] ?
91.8

---

Target or system: CYP2D6 (Homo sapiens)
Sequence (P10635 whole entry): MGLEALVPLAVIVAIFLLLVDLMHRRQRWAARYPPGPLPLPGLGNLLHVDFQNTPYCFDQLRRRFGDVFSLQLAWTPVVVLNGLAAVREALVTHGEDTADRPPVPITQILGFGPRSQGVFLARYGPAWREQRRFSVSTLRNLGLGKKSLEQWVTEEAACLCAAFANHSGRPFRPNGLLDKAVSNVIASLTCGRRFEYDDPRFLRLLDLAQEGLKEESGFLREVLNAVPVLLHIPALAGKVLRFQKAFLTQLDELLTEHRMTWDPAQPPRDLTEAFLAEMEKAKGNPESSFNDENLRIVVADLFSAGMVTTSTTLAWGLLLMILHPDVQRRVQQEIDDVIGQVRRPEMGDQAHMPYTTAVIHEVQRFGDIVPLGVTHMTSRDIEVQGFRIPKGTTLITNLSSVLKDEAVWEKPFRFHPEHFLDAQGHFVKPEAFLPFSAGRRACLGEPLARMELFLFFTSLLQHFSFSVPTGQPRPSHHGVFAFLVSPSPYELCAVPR
Assay details: CYP inhibition in human liver microsomes
Setup conditions: human, human liver microsomes, probe bufuralol
Quantity measured: activity at 20 min, 100 µM (%)
Numeric only. Scale: %

Item CCc1cc(Cl)c(OC)c(N2CCN(CC(O)CCNC(=O)c3cc4ccccc4[nH]3)CC2)c1 (stereo not shown) [R-VK4-116] has what recorded activity at 20 min, 100 µM?
95

Cited source for all entries: paper PMC11649115
